SYSTEM: Human immunodeficiency virus type 1 integrase (Human immunodeficiency virus 1)
Sequence (Q7ZJM1 whole entry): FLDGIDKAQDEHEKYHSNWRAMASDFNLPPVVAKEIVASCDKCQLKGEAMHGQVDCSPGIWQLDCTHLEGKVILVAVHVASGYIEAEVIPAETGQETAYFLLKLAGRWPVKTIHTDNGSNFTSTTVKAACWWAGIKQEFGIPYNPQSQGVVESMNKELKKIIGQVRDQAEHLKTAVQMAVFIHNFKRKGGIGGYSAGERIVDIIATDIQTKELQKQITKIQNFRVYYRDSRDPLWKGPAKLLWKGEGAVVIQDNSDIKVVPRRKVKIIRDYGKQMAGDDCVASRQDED
ASSAY_COMMENT: Inhibition of recombinant HIV1 N-terminal His6-tagged integrase expressed in Escherichia coli using 32P-labeled preprocessed HIV-1 U5 DNA as substrate assessed as strand transfer activity after 2 hrs by densitometric analysis
MEASURED_PARAMETER: IC50 (µM)

1. O=C(NCc1ccc(Cl)cc1)c1ncc2cccnc2c1O | 20

----------
SYSTEM: Human immunodeficiency virus type 1 reverse transcriptase (Human immunodeficiency virus 1)
pIC50: −log10 of the molar value.
// not fulfilled strictly below 7 in pIC50; fulfilled otherwise

1) O=c1nc(NCC2CC2)c2cccnc2n1O | not fulfilled
2) O=c1nc(NCc2ccc(-c3ccncc3)cc2)c2cccnc2n1O | fulfilled
3) O=c1nc(Nc2ccc(CN3CCOCC3)cc2)c2cccnc2n1O | not fulfilled
4) O=c1nc(NCc2ccc(-c3ccccc3)cc2)c2cccnc2n1O | fulfilled
5) O=c1nc(N2CCC(F)(F)CC2)c2cccnc2n1O | not fulfilled
6) O=c1nc(NCc2cccc(N3CCOCC3)c2)c2cccnc2n1O | not fulfilled
